Target: recombinant human CD46 antigen (human) (UniProt P15529)
Assay: ELISA, coated human CD46; EC50 at pH 7.4 over EC50 at pH 6.0
measuredParameter: ratio (ph 7.4/pH 6.0)
Output: the number by itself.

Example results:
BA-133-04-03 (antibody, V domains shown) VH: EVQLVESGGGLVQPGGSLRLSCAASGGSVSSYDISWIRQSPSRGLEWLGVIWTDGGTNYNSAFMSRFTISRDDSKNTAYLQMNSLKTEDTAVYYCERVYDGYPWFAYWGQGTLVTVSS VL: AIQLTQSPSSLSASVGDRVTITCRASQGISNYLNWYLQKPGQSPQLLIYYTSSLFSGVPDRFSGSGSGTDFTLKISRVEAEDVGVYYCQQYIKLPWTFGQGTKVEIK | 2.23
Benchmark (BM) BA-133-00-01 (antibody, V domains shown) VH: QVQLQESGPGLVKPSETLSLTCTVSGGSVSSYDISWIRQPPGKGLEWIGVIWTDGGTNYNSAFMSRVTISVDTSKNQFSLKLSSVTAADTAVYYCARVYDGYPWFAYWGQGTLVTVSS VL: DIQMTQSPSSLSASVGDRVTITCRASQGISNYLNWYQQKPGKAPKLLIYYTSSLHSGVPSRFSGSGSGTDFTLTISSLQPEDFATYYCQQYIKLPWTFGGGTKLEIKR | 1.31
BA-133-04-04 (antibody, V domains shown) VH: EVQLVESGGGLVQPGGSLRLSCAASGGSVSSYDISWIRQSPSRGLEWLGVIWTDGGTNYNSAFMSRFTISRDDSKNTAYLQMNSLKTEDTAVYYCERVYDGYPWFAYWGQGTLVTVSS VL: AIQLTQSPSSLSASVGDRVTITCRASQGISNYLNWYLQKPGQSPQLLIYYTSSLHEGVPDRFSGSGSGTDFTLKISRVEAEDVGVYYCQQYIKLPWTFGQGTKVEIK | 3.63

Here is the next item to consider.
Please fill in: ratio (ph 7.4/pH 6.0) reported for BAP133-2-02-12 (antibody, V domains shown) VH: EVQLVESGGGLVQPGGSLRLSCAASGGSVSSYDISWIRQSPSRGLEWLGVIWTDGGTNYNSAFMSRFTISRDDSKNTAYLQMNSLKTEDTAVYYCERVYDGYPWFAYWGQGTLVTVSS VL: AIQLTQSPSSLSASVGDRVTITCRALQGISNYLNWYQQKPGKAPKLLIYYTSSLHSGVPSRFSGSGSGTEFTLTISSLQPDDFATYYCQQYIKLPWTFGQGTKVEIK = 7.02
